# maps each entry to its A450 at 13 nM Ab in cell ELISA
target: T1, human IL-21R expressed on cells (human, UniProt Q9HBE5 20-538); test: cell ELISA on transfected CHO cells, 13 nM IgG
T1 construct: Transfected BaF3, TF1 and CHO cells; also native on primary human B and CD4+ T cells; also called hIL-21R; human IL-21R-BaF3 cells
T1 sequence (Q9HBE5 20-538 limits assumed): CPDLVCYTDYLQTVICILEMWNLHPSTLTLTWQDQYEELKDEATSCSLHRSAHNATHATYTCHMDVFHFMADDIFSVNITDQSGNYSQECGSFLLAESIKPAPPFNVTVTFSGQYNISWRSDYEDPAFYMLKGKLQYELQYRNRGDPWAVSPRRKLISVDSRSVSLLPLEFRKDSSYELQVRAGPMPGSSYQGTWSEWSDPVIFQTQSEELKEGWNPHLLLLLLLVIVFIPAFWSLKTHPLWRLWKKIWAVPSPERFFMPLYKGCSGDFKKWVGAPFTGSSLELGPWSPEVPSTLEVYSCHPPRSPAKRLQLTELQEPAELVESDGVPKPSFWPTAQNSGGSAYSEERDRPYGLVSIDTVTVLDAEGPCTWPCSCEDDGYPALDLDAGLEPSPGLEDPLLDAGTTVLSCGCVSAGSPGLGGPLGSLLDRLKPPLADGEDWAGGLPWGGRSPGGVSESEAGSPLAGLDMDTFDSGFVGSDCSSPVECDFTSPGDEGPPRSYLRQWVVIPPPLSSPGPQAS
VALUE KIND: A450 at 13 nM Ab in cell ELISA

| BINDER | READOUT VALUE |
| --- | --- |
| AbD (antibody, human IgG1, V domains shown, Full-length human IgG1 / human lambda, transient, conditioned medium; Framework limits derived; also called VHP/VL13) VH: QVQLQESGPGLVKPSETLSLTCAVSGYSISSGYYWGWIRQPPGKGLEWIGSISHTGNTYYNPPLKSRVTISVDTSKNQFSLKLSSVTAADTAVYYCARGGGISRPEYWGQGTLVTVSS VL: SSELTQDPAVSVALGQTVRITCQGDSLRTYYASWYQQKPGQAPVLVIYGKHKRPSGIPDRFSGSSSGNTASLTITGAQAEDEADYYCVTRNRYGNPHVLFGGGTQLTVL | 1.25 A450 |
| AbM (antibody, human IgG1, V domains shown, Full-length human IgG1 / human lambda, transient, conditioned medium; Framework limits derived; also called VH6/VL13) VH: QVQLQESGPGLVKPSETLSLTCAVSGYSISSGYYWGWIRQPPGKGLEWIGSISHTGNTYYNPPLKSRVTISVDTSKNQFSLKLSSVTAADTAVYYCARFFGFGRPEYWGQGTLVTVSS VL: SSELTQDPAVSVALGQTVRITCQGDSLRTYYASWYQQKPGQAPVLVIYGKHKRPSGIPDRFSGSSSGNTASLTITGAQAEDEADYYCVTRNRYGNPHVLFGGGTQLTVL | 1.2 A450 |
| AbU (antibody, human IgG1, V domains shown, Human IgG1 triple-mutant (L234A, L235A, G237A); Framework limits derived; also called VHP/VL25; VHPTM/VL25) VH: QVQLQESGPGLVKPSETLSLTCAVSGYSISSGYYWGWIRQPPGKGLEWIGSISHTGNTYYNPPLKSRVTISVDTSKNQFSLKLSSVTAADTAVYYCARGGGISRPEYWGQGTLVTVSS VL: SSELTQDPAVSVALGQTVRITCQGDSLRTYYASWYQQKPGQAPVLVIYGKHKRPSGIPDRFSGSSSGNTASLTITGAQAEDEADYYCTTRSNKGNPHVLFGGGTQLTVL | 1.29 A450 |
| AbS (antibody, human IgG1, V domains shown, Human IgG1 triple-mutant (L234A, L235A, G237A); Framework limits derived; also called VHP/VL6; VHPTM/VL6) VH: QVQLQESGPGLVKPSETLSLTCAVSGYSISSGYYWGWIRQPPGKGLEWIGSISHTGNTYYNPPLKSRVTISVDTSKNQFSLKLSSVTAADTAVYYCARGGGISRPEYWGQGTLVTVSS VL: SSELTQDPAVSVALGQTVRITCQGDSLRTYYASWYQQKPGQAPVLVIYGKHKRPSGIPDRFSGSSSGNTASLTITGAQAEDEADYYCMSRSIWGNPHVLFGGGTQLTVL | 1.02 A450 |
| AbF (antibody, human IgG1, V domains shown, Full-length human IgG1 / human lambda, transient, conditioned medium; Framework limits derived; also called VHP/VL17) VH: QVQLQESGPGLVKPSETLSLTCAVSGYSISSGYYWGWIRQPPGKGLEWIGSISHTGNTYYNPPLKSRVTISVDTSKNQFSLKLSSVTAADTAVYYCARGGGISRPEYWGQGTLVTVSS VL: SSELTQDPAVSVALGQTVRITCQGDSLRTYYASWYQQKPGQAPVLVIYGKHKRPSGIPDRFSGSSSGNTASLTITGAQAEDEADYYCSTRSRKGNPHVLFGGGTQLTVL | 1.35 A450 |

Reference source: patent US20090298167A1
